- Tested on: MCF7
- test-details: Antiproliferative activity against human MCF7 cells assessed as cell growth inhibition incubated for 72 hrs by MTT assay
- Assay type: functional, cell-based
- measurement-context: MCF7, 72 h
What pIC50 was measured for each of the following?
Recall that pIC50 is obtained by taking minus log10 of the concentration measured in molar.

pIC50 measured on COc1cc(-c2nc3scc(-c4cc(Cl)cc(Cl)c4)n3n2)cc(OC)c1OC = 5.67

# pIC50 (molecule: COc1cc(-c2nc3scc(-c4ccc(Cl)cc4)n3n2)cc(OC)c1OC ) is 5.33

Noted for COc1cc(-c2nc3scc(-c4cccc(Cl)c4)n3n2)cc(OC)c1OC : its pIC50 reads 5.51

For COc1cc(-c2nc3scc(-c4ccc(Br)cc4)n3n2)cc(OC)c1OC the molecule record lists pIC50 as 5.16

Per the records, this molecule ( COc1cc(-c2nc3scc(-c4cccc(N)c4)n3n2)cc(OC)c1OC ) has pIC50 equal to 5.44

For reference, reported pIC50 for COc1cc(-c2nc3scc(-c4cccc([N+](=O)[O-])c4)n3n2)cc(OC)c1OC stands at 5.50

// COc1cc(-c2nc3scc(-c4cc(F)cc(F)c4)n3n2)cc(OC)c1OC : pIC50 value = 5.41

Consider COc1cc(-c2nc3scc(-c4ccc(F)c(F)c4)n3n2)cc(OC)c1OC . Its measured pIC50 is 5.30

What the record says about COc1cc(-c2nc3scc(-c4cccc(F)c4)n3n2)cc(OC)c1OC : pIC50 is 5.31

Short answer for COc1cccc(-c2csc3nc(-c4cc(OC)c(OC)c(OC)c4)nn23)c1 : pIC50 was 5.31

In plain terms, COc1cc(-c2nc3scc(-c4ccccc4)n3n2)cc(OC)c1OC has a documented pIC50 of 5.36

Input COc1cc(-c2nc3scc(-c4cccc(Br)c4)n3n2)cc(OC)c1OC . Output pIC50: 5.46

// COc1cc(-c2nc3scc(-c4ccccc4F)n3n2)cc(OC)c1OC : pIC50 value = 5.23

Looking up COc1cc(-c2nc3scc(-c4ccc(C)cc4)n3n2)cc(OC)c1OC , I see its pIC50 listed as 5.59

Memo: COc1cc(-c2nc3scc(-c4ccccc4Cl)n3n2)cc(OC)c1OC , reported pIC50: 5.13

According to the records, this molecule COc1cc(-c2nc3scc(-c4ccc(C(F)(F)F)cc4)n3n2)cc(OC)c1OC displays pIC50 of 4.91

pIC50 reported for this molecule COc1ccc(-c2csc3nc(-c4cc(OC)c(OC)c(OC)c4)nn23)cc1OC : 5.23

For COc1cc(-c2nc3scc(-c4cc(C)cc(C)c4)n3n2)cc(OC)c1OC the molecule record lists pIC50 as 5.27

What the record says about COc1ccccc1-c1csc2nc(-c3cc(OC)c(OC)c(OC)c3)nn12 : pIC50 is 5.30

###

- Tested on: HT-1080
- test-details: Antiproliferative activity against human HT-1080 cells assessed as cell growth inhibition incubated for 72 hrs by MTT assay
- Format: functional, cell-based
- measurement-context: HT-1080, 72 h
Provide the reported IC50 of each item.

Consider COc1cc(-c2nc3scc(-c4cccc(Cl)c4)n3n2)cc(OC)c1OC . Its measured IC50 is 1530 nM

So for COc1cccc(-c2csc3nc(-c4cc(OC)c(OC)c(OC)c4)nn23)c1 , the logged IC50 turned out to be 2180 nM

IC50 in this record for COc1cc(-c2nc3scc(-c4ccc([N+](=O)[O-])cc4)n3n2)cc(OC)c1OC : 4300 nM

IC50 in this record for COc1ccc(-c2csc3nc(-c4cc(OC)c(OC)c(OC)c4)nn23)cc1F : 3790 nM

// recorded IC50 for COc1cc(-c2nc3scc(-c4ccccc4Cl)n3n2)cc(OC)c1OC : 3380 nM

IC50 reading for COc1cc(-c2nc3scc(-c4ccc(C)cc4)n3n2)cc(OC)c1OC : 1510 nM

Looking up COc1cc(-c2nc3scc(-c4ccccc4)n3n2)cc(OC)c1OC , I see its IC50 listed as 3640 nM

Sample COc1ccccc1-c1csc2nc(-c3cc(OC)c(OC)c(OC)c3)nn12 ; IC50 observed: 7550 nM

For COc1cc(-c2nc3scc(-c4ccc(C(F)(F)F)cc4)n3n2)cc(OC)c1OC the compound record lists IC50 as 2910 nM

Documented IC50 of COc1cc(-c2nc3scc(-c4ccc(Br)cc4)n3n2)cc(OC)c1OC : 7490 nM

Data point: COc1cc(-c2nc3scc(-c4ccccc4Br)n3n2)cc(OC)c1OC ; IC50 = 1360 nM

get_value(item= COc1cc(-c2nc3scc(-c4cccc(N)c4)n3n2)cc(OC)c1OC , readout=IC50) returns 2130 nM

Reported IC50 ( COc1cc(-c2nc3scc(-c4cc(C)cc(C)c4)n3n2)cc(OC)c1OC ) = 1420 nM

Record COc1cc(-c2nc3scc(-c4ccccc4F)n3n2)cc(OC)c1OC , field IC50: 1650 nM

compound COc1cc(-c2nc3scc(-c4cc(Cl)cc(Cl)c4)n3n2)cc(OC)c1OC , IC50 observed: 1180 nM

Lab note: measured IC50 of COc1ccc(-c2csc3nc(-c4cc(OC)c(OC)c(OC)c4)nn23)cc1 was 3760 nM

Measured IC50, COc1cc2c(c(OC)c1OC)-c1ccc(OC)c(=O)cc1[C@@H](NC(C)=O)CC2 : 73 nM

Short answer for COc1cc(-c2nc3scc(-c4cccc(Br)c4)n3n2)cc(OC)c1OC : IC50 was 1710 nM

The measured IC50 associated with COc1cc(-c2nc3scc(-c4cc(F)cc(F)c4)n3n2)cc(OC)c1OC reads 2310 nM

# IC50 of COc1cc(-c2nc3scc(-c4ccc(Cl)cc4)n3n2)cc(OC)c1OC = 3750 nM

Short answer for COc1cc(-c2nc3scc(-c4ccc(F)c(F)c4)n3n2)cc(OC)c1OC : IC50 was 2850 nM

The compound COc1cc(-c2nc3scc(-c4cccc(F)c4)n3n2)cc(OC)c1OC showed IC50 equal to 2740 nM

Consider COc1cc(-c2nc3scc(-c4cccc([N+](=O)[O-])c4)n3n2)cc(OC)c1OC . Its measured IC50 is 1500 nM

// IC50 lookup, compound = COc1ccc(-c2csc3nc(-c4cc(OC)c(OC)c(OC)c4)nn23)cc1OC , result: 11700 nM

For COc1cc(-c2nc3scc(-c4ccc(F)cc4)n3n2)cc(OC)c1OC the compound record lists IC50 as > 30000 nM

###

- System: MCF7
- test-details: Antiproliferative activity against human MCF7 cells assessed as cell growth inhibition incubated for 72 hrs by MTT assay
- Format: functional, cell-based
- measurement-context: MCF7, 72 h
endpoint-label: pIC50
# pIC50 is unitless: minus log10 of the molar concentration; print number only

COc1cc(-c2nc3scc(-c4ccccc4Br)n3n2)cc(OC)c1OC has a reported pIC50 of 5.28

The compound COc1cc2c(c(OC)c1OC)-c1ccc(OC)c(=O)cc1[C@@H](NC(C)=O)CC2 [COLCHICINE] showed pIC50 equal to 7.17

// COc1ccc(-c2csc3nc(-c4cc(OC)c(OC)c(OC)c4)nn23)cc1 : pIC50 value = 5.08

Just so you know, measured pIC50 for COc1ccc(-c2csc3nc(-c4cc(OC)c(OC)c(OC)c4)nn23)cc1F came out at 5.29

###

- test-details: Cytotoxicity against HUVEC cells assessed as cell growth inhibition incubated for 72 hrs by MTT assay
- Type: toxicity, cell-based
- measurement-context: human
Provide the recorded IC50 at 72 h for the entries that follow.

Lookup result for COc1cc(-c2nc3scc(-c4cc(Cl)cc(Cl)c4)n3n2)cc(OC)c1OC ; measured IC50 at 72 h: 13.2 µM

Input COc1cc2c(c(OC)c1OC)-c1ccc(OC)c(=O)cc1[C@@H](NC(C)=O)CC2 [COLCHICINE] . Output IC50 at 72 h: 0.21 µM
